- target-or-system: rat mGluR1 (Rattus norvegicus)
- Sequence (P23385 19-1199): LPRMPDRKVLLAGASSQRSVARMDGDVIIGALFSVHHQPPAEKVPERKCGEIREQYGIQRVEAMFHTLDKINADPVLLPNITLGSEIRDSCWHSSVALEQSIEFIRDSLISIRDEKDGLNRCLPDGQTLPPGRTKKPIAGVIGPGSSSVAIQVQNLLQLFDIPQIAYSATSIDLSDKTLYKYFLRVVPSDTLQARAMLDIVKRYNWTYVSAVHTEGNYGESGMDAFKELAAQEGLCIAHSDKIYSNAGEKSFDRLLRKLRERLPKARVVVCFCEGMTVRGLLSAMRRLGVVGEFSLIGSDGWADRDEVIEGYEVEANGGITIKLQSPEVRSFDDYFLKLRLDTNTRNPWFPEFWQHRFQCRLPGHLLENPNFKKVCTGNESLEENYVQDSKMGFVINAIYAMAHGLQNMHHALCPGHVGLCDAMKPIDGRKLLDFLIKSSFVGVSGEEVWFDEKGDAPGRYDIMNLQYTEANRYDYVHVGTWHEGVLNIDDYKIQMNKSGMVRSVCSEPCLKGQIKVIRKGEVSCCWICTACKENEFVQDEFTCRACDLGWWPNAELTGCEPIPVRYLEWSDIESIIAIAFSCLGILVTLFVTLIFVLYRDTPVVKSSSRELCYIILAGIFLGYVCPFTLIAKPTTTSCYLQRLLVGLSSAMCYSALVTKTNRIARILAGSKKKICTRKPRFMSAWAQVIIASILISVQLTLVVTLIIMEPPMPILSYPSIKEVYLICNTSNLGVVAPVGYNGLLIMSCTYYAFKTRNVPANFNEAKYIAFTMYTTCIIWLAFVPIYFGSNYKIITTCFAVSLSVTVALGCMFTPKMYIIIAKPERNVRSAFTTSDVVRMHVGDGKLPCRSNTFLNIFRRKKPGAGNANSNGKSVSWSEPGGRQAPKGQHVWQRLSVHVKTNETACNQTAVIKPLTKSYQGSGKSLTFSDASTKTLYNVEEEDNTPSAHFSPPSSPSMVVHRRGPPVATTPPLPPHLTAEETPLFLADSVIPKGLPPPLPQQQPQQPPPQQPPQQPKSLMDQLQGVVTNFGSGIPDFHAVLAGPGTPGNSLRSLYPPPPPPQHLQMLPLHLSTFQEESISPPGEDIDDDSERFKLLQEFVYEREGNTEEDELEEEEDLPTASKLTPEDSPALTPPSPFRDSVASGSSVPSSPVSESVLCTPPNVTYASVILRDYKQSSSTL
measurement-type: Ki

[
  {
    "entry-smiles": "O=S(=O)(c1ccc(F)c(Cl)c1)c1cnc2cc(Cl)ccc2c1-c1cccc(F)c1",
    "target-or-system": "rat mGluR1 (Rattus norvegicus)",
    "Ki": "> 500 nM"
  },
  {
    "entry-smiles": "N#Cc1cc(S(=O)(=O)c2cnc3ccccc3c2-c2ccc(Cl)cc2)ccc1F",
    "target-or-system": "rat mGluR1 (Rattus norvegicus)",
    "Ki": "> 500 nM"
  }
]

Asked: Need Ki of O=S(=O)(c1cc(F)cc(F)c1)c1cnc2ccc(F)cc2c1-c1cccc(Cl)c1 , thanks.
Given back: > 500 nM

Asked: Need Ki of COc1ccc(S(=O)(=O)c2cnc3cc(F)ccc3c2-c2ccc(F)cc2)cc1 , thanks.
Given back: > 500 nM

Asked: Need Ki of O=S(=O)(c1cc(F)cc(F)c1)c1cnc2c(F)cccc2c1-c1ccc(Cl)cc1 , thanks.
Given back: 200 to 500 nM

Asked: Need Ki of O=S(=O)(c1ccc(F)c(F)c1)c1cnc2cc(Cl)ccc2c1-c1ccc(F)cc1 , thanks.
Given back: > 500 nM

Asked: Need Ki of N#Cc1cccc(S(=O)(=O)c2cnc3c(F)cccc3c2-c2ccc(F)cc2)c1 , thanks.
Given back: > 500 nM

Asked: Need Ki of COc1ccc(-c2c(S(=O)(=O)c3ccc(F)cc3)cnc3c(F)cccc23)cc1 , thanks.
Given back: > 500 nM

Asked: Need Ki of O=S(=O)(c1cc(Cl)cc(Cl)c1)c1cnc2ccc(F)cc2c1-c1cccc(Cl)c1 , thanks.
Given back: > 500 nM

Asked: Need Ki of O=S(=O)(c1ccc(F)cc1)c1cnc2cc(F)ccc2c1-c1cccc(F)c1 , thanks.
Given back: 200 to 500 nM

Asked: Need Ki of O=S(=O)(c1cc(Cl)cc(Cl)c1)c1cnc2cc(Cl)ccc2c1-c1ccc(F)cc1 , thanks.
Given back: > 500 nM

Asked: Need Ki of N#Cc1cc(F)cc(S(=O)(=O)c2cnc3c(N)cccc3c2-c2cccc(F)c2)c1 , thanks.
Given back: > 500 nM

Asked: Need Ki of COc1cccc(-c2c(S(=O)(=O)c3ccc(F)c(F)c3)cnc3cc(F)ccc23)c1 , thanks.
Given back: > 500 nM
